B1: BCL2L13 (parent)
chain: YIIQQGGWGTVFSLESEEEEYPGI

variants of: B1; assay: protein stability index of a GFP-peptide fusion (GPS, HEK-293T) (PSI 1-6); higher = more stable; conditions: c terminus: a fixed tail appended;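 note: lentivirally expressed fusions sorted by FACS into six bins by GFP to DsRed ratio, PSI derived from sequencing read proportions per bin multiplied by bin number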
The threshold is inclusive: protein stability index of exactly 2 counts as Satisfied; values below receive Not satisfied.

INSERT INTO assay_data (var, cat) VALUES
  ('G6D', 'Not satisfied'),
  ('F12I', 'Not satisfied'),
  ('S16D', 'Not satisfied'),
  ('Y21I', 'Not satisfied'),
  ('G23A', 'Not satisfied'),
  ('I24S', 'Not satisfied'),
  ('Q4A', 'Satisfied'),
  ('G9A', 'Not satisfied');

# input Could you tell me if the measured protein stability index of G23T reaches 2 or more?
# output Satisfied

# input Could you tell me if the measured protein stability index of F12L reaches 2 or more?
# output Not satisfied

# input Could you tell me if the measured protein stability index of S16F reaches 2 or more?
# output Satisfied

# input Could you tell me if the measured protein stability index of E18S reaches 2 or more?
# output Satisfied
